Test system: Human alphaherpesvirus 1
Experiment: Antiviral activity against Herpes simplex virus type 1 VR-260 infected in African green monkey Vero cells assessed as inhibition of virus-induced cytopathogenicity
Type: functional, organism-based
Activity calls are given as the source filed them. The rule behind the calls is not given here.
Hi there, use one of these labels in your reply, thanks! T for active, F for inactive

CN1OC(n2cc3cc(-c4ccccc4)oc3nc2=O)CC1CO (racemic) = F

Query: Called result for COc1ccc(-c2cc3cn(C4CC(CO)N(C)O4)c(=O)nc3o2)cc1 (racemic)
Response: F

Query: Called result for CN1OC(n2cc3ccoc3nc2=O)CC1CO (racemic)
Response: F

Query: Called result for "Nc1nc2c(ncn2COCCO)c(=O)[nH]1"
Response: T

Query: Called result for CCCCCc1ccc(-c2cc3cn(C4CC(CO)N(C)O4)c(=O)nc3o2)cc1 (racemic)
Response: F

Query: Called result for CCCc1cc2cn(C3CC(CO)N(C)O3)c(=O)nc2o1 (stereo unspecified)
Response: F
